- assay: amyloid nucleation score (Sup35N fusion, yeast selection) (log enrichment); library NNK3; higher = more nucleation; inactive = no reads after selection;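 further: zero at mode of non-aggregating sequences after 7 days selection at 30°C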
propertyLabel: amyloid nucleation score

// known answers, use as guide
[[record]]
substance = "FFQDQFVDWLDYTVLRI"
propertylabel = "amyloid nucleation score"
testresult = "inactive"

[[record]]
substance = "TPLGSQLALESDFFYTPNRC"
propertylabel = "amyloid nucleation score"
testresult = "inactive"

[[record]]
substance = "YPMLLALYTGSVFNFNRCRL"
propertylabel = "amyloid nucleation score"
testresult = 2.07

[[record]]
substance = "GTDVRS"
propertylabel = "amyloid nucleation score"
testresult = -0.272

[[record]]
substance = "KCKANPEDNVRFLRLVYGAS"
propertylabel = "amyloid nucleation score"
testresult = "inactive"


input: Please give measured amyloid nucleation score of the following entry: GRHVLGCVDITTGARSLPRM
output: inactive

input: Provide only the value of recorded amyloid nucleation score for VNVVEFTRFRAW
output: 0.585

input: Identify measured amyloid nucleation score associated with RFPDLLQMVRAKAPDPLQQH
output: inactive

input: Supply recorded amyloid nucleation score for VHYYEE here.
output: inactive

---

- assay: amyloid nucleation score (Sup35N fusion, yeast selection) (log enrichment); library NNK2; higher = more nucleation; inactive = no reads after selection
# if value of amyloid nucleation score reaches 0.09, tag Fulfilled; if it stays below, tag Not fulfilled

input: Please check the record VMTIVIFGLYNY and state if its amyloid nucleation score is at or above 0.09.
output: Fulfilled

input: Check this sequence for amyloid nucleation score at or above 0.09: RYFRATPKVCRLH
output: Fulfilled

input: State whether the measured amyloid nucleation score reaches 0.09, counting equality as reaching it, for GGMPVFISVTVLYEWNDFLF
output: Fulfilled

input: Hello, I need to know if NMGLFGGILVFVMWLIMCSL has measured amyloid nucleation score not below 0.09. Thanks!
output: Fulfilled

input: Is amyloid nucleation score at least 0.09? Consider IFFVRACSKAGFVQPLSIFY
output: Not fulfilled

input: Evaluate NLDEQGFAVSWETVLLWSEE : amyloid nucleation score at minimum 0.09?
output: Not fulfilled

input: For this sequence, is measured amyloid nucleation score 0.09 or higher? TEMWFDGRNSRMIQAH
output: Not fulfilled

input: Is reported amyloid nucleation score greater than or equal to 0.09 here: LAGIRCVIDRLMLCRVDAIK
output: Not fulfilled

---

- assay: amyloid nucleation score (Sup35N fusion, yeast selection) (log enrichment); library NNK3; higher = more nucleation; inactive = no reads after selection
propertyLabel: amyloid nucleation score

Look over these answered cases.
[[record]]
substance = "SWTFQHIWVRHSRSPCKAGR"
testresult = "inactive"

[[record]]
substance = "ARKMTIRPPLFPAWHSFELK"
testresult = "inactive"

[[record]]
substance = "ILSFEVWFGLWSTCGLYPHK"
testresult = "inactive"

[[record]]
substance = "VHFKCLRRCVGVIDRCINRH"
testresult = "inactive"

[[record]]
substance = "VYYNSVNVLSVSGCRLDGLN"
testresult = 1.66


input: Please look at this substance and report its amyloid nucleation score: GLLVWQCMWGLDKKYLHSVY
output: inactive

input: Using known records, supply amyloid nucleation score for HVFRLCMGKTELAYFY
output: inactive

input: For the substance NLNYWAFDYADKLIEHSCVR , report amyloid nucleation score.
output: inactive

input: Look up and report measured amyloid nucleation score for this entry: ILGGGSIFKSRQNMIWYTLS
output: 0.207

input: State, in one line, measured amyloid nucleation score of TLLDVPRSRLWSKFWLCVQL
output: inactive

input: # return recorded amyloid nucleation score for input VSYTRTIPLKGSNLMLIWF
output: inactive

input: For the substance DISQGLRRNSSGYLVQRGYA , report amyloid nucleation score.
output: inactive

input: For the substance MTLHAILFLTRSLDALYLLT , give its reported amyloid nucleation score.
output: inactive

input: Complete the entry with amyloid nucleation score for LMRSREEGAPSDRRSQAYED
output: inactive

input: Quickly give me recorded amyloid nucleation score for VTNRIGLV
output: inactive

input: Find the measured amyloid nucleation score of ERRASLGYNHIL and report it.
output: inactive

input: Indicate its recorded amyloid nucleation score; the substance in question is RHFDSMTINLYTTSLTFFAN
output: inactive

input: Return amyloid nucleation score (reported value) for this substance: SWRASVYFITWDW
output: inactive

input: Give amyloid nucleation score for the following substance: CWNLISWSKEYA
output: inactive

input: Identify amyloid nucleation score associated with the substance FWVVISLMSSRVTVASDDHI
output: inactive

input: // fetch amyloid nucleation score given entry FSVLVSCSWGMKFI
output: inactive

---

- assay: amyloid nucleation score (Sup35N fusion, yeast selection) (log enrichment); library NNK3; higher = more nucleation; inactive = no reads after selection
propertyLabel: amyloid nucleation score

Illustrative cases are given below, each with its answer.
[[record]]
substance = "SRFLKCF"
testresult = "inactive"

[[record]]
substance = "CLDHIAPKRKIQEVGLS"
testresult = "inactive"

[[record]]
substance = "DLVRITMIVYYVAASHMVAS"
testresult = "inactive"

[[record]]
substance = "FDEDRREV"
testresult = "inactive"


input: Indicate the recorded amyloid nucleation score value for this substance: VHYIVNYRGRILV
output: inactive

input: Given SKKSRSLNWFLLVNRTPDAG , respond with its amyloid nucleation score.
output: inactive

---

- assay: amyloid nucleation score (Sup35N fusion, yeast selection) (log enrichment); library NNK2; higher = more nucleation; inactive = no reads after selection
Label yes when amyloid nucleation score is at or above 0.3; otherwise label no.

input: Please indicate if the recorded amyloid nucleation score for CYMCWFNIILLQKFKRQGVL meets or exceeds 0.3.
output: yes

input: Confirm if amyloid nucleation score reported for the sequence FSYRCFINTSQFYSAIKIFL is 0.3 or above.
output: yes

input: Please indicate if the recorded amyloid nucleation score for LFAKDGLRSRLKEC meets or exceeds 0.3.
output: no

input: Does amyloid nucleation score meet or surpass 0.3 for LRFLLPPTMTVGMKFSSDAG ?
output: no

input: Determine whether this sequence has amyloid nucleation score no lower than 0.3: KDCYNHSGRTGVVTDQKAQW
output: no

input: Could you please find out whether MVYRSDAGCSPVVTKK has amyloid nucleation score that meets 0.3 or exceeds it?
output: no

input: // inclusive: amyloid nucleation score at least 0.3? input: IFRDNVYFIE
output: no

input: Please check the record RNFDMPLLAYGMTWEQLMEF and state if its amyloid nucleation score is at or above 0.3.
output: yes

input: Could you verify whether the entry IVCDVLNWPYFVAMAF shows amyloid nucleation score of no less than 0.3?
output: no

---

- assay: amyloid nucleation score (Sup35N fusion, yeast selection) (log enrichment); library NNK3; higher = more nucleation; inactive = no reads after selection
propertyLabel: amyloid nucleation score
# print the numeric value only

input: Assign amyloid nucleation score to the following record: SFNSNSDDDIIFDALNYTLN
output: 0.069

input: Look up and report measured amyloid nucleation score for this entry: CRHINFMSIIFSFGDSSYRF
output: 2.2

input: Return reported amyloid nucleation score. Input sequence: SCIFNWFGFYNIINVFNLCF
output: 2.5

input: Read off the recorded amyloid nucleation score for SQLVVLCCCRSPSFYCGVL
output: 1.32

input: Quick one: give measured amyloid nucleation score for NFLYWHRWVVWSSMSSYRKP
output: -0.348

---

- assay: amyloid nucleation score (Sup35N fusion, yeast selection) (log enrichment); library NNK1; higher = more nucleation; inactive = no reads after selection
propertyLabel: amyloid nucleation score
Hey, just send me the number, nothing else.

input: # return recorded amyloid nucleation score for input NLTRHVDVANPAPRLPHLGV
output: -0.146

input: Retrieve amyloid nucleation score measured for NGEILSTLDDVTMLRIRTTC and print it.
output: 0.071

input: Answer with the recorded amyloid nucleation score for the substance listed here: GCSVAASSESNNRSQQVGLT
output: 1.02

input: Supply amyloid nucleation score value. Item: SFLDMSTKVEYESIWTSTVA
output: 0.568

input: State its amyloid nucleation score: MRYLNFLCHCVVVYVVMSAS
output: 2.16

input: Complete the entry with amyloid nucleation score for IRKGSFPD
output: -0.841

input: Return amyloid nucleation score (reported value) for this substance: GVRGVSKMECKYQKFIGLTG
output: 1.78

input: Hello, please tell me recorded amyloid nucleation score for this one: FKGQSVCFDLVGWFEVLCQG
output: -0.381

input: Item SSAELFREPFQVNRCNCEGW : provide amyloid nucleation score
output: 0.774

input: Return value of amyloid nucleation score for input LYVDYQCIGSFVTIYKYITP , no commentary.
output: 0.889

input: Answer with the recorded amyloid nucleation score of RCRYYCNR only.
output: -0.152

input: Please look at this substance and report its amyloid nucleation score: TKVKCSLLSFWEKKFLLLRL
output: 1.82

input: Provide amyloid nucleation score value for the following substance: KSEDTSRFYTLMMSMYTQRF
output: 1.76

input: State its amyloid nucleation score for this substance: PVSSLNYLVDT
output: 0.395

input: Please indicate amyloid nucleation score recorded for HGTVNLIYVNEI
output: 0.133

input: Give amyloid nucleation score for the following substance: IDVWCESRVWRTWVYLGVRV
output: 0.903

input: Identify measured amyloid nucleation score associated with IGYITHITYSVLVL
output: 0.371

input: Quote amyloid nucleation score reported for CCIMSRIGTCLWVEWRWCRG please.
output: 0.243

input: In one line, give reported amyloid nucleation score of the entry DGSCKLYVVFRPAVLGHGHS .
output: 1.05

input: Give the measured amyloid nucleation score for DIATCRIWTVCTCQMCFISV
output: 6.17

input: Output measured amyloid nucleation score for this item: WCGLARREKCRMPNGHRVHI
output: -0.497

input: Specify amyloid nucleation score for RWYWIF and stop.
output: 4.6

input: Please list amyloid nucleation score recorded for the substance DVVLDYSRQTYKDPASRMYA
output: 1.1

input: Check the records and state amyloid nucleation score for SARQVSGLTWVM
output: 2.52

input: Return value of amyloid nucleation score for input LNRRMNRCCTWLNMCADFFA , no commentary.
output: 0.865

input: Hello, please tell me recorded amyloid nucleation score for this one: MRSWIVIMALKM
output: -1.34

input: Provide one value: measured amyloid nucleation score of DGVRTDLVILFWQCDHYEL
output: -0.516

input: Please look at this substance and report its amyloid nucleation score: FVVGSRFMKIHVSGGDLGFF
output: -0.144

input: Give me measured amyloid nucleation score, please, for this substance: YPDNMWYLCMLCRGWMCETR
output: -0.644

input: Specify reported amyloid nucleation score for the substance shown: EGTFLSGEHTFLNLGFSNRG
output: 0.019

input: Return amyloid nucleation score for the following substance: FMSNIDLFTGFLRDMWFIIF
output: -0.312

input: Quick one: give measured amyloid nucleation score for CHGKESRTVREVHDLLVYVS
output: -0.408

input: Tell me amyloid nucleation score reported for NLCSFFMFTIILGGNVGTFM
output: 7.21

input: Answer with the recorded amyloid nucleation score of MRRRIQLDLRRFDPSCMKDV only.
output: -1.66

input: Fill in amyloid nucleation score for record VPFLWLRLCRRCYLTMGCSI
output: -0.491

input: Kindly indicate its recorded amyloid nucleation score. Item: LACSVAA
output: -0.493

input: Please report amyloid nucleation score for the following substance: ERYSMLDGFGSDLNWIIYNN
output: 0.978

input: Note amyloid nucleation score for the substance shown: RTGSAASG
output: -0.564

input: State its amyloid nucleation score: GLAASHSTSCSSYMISCWSR
output: -0.055

input: Read the entry IKDRFLEALCVKCGLSYTQG and write its reported amyloid nucleation score.
output: -0.035

input: Name the recorded amyloid nucleation score of the substance listed here: RLFGLPKYCYVILFPVDVCH
output: 0.132

input: Recall and state the measured amyloid nucleation score for NKWYVF .
output: 0.071

input: Specify reported amyloid nucleation score for the substance shown: GIFDLLYWLRELSLRKA
output: 1.14

input: Read the entry PMQNSTPLFYSNAWSE and write its reported amyloid nucleation score.
output: -0.096

input: Hello, please tell me recorded amyloid nucleation score for this one: SSQDYAHSIAGLVYGC
output: -0.137

input: Give amyloid nucleation score for the following substance: IVFFQEDGSWAEWFVGEVLT
output: 0.557

input: Return amyloid nucleation score (reported value) for this substance: STRMVYR
output: -0.261

input: Give a short answer stating reported amyloid nucleation score for RLWGYCMHSLVFDTNIWHPL .
output: 0.461

input: Give amyloid nucleation score for the following substance: TAWGHV
output: 0.411

input: Entry TNCGITFVFTPIPRATTWSN needs its amyloid nucleation score filled in; supply it.
output: 5.37

input: Give reported amyloid nucleation score value for ASRFDCEDIFGRTCGYVHYF
output: -0.113

input: For FCRGKPRRLVP , write its amyloid nucleation score.
output: -0.219

input: Please report amyloid nucleation score for the following substance: LHRALYLDRQLISWGTVSQM
output: -0.332

input: Report amyloid nucleation score for IACSARMFYDS
output: 0.399

input: Quick one: give measured amyloid nucleation score for FAWEVKTDYRWYNPWLGRAC
output: -0.838

input: Consider the substance FFTVSVYLHVRGVAYESAAA and give its recorded amyloid nucleation score.
output: 0.252

input: Query amyloid nucleation score for FLMGTFDCCTVSVLFFAGK
output: 5.44

input: Specify measured amyloid nucleation score for ASMLFRSHQCCLIHSGADIN .
output: 0.979

input: Give recorded amyloid nucleation score. CVHYLYEILQGILLNYSFLL
output: -0.737

input: Retrieve amyloid nucleation score measured for MCFDGICMNWWVR and print it.
output: 2.96

input: Please list amyloid nucleation score recorded for the substance WSKCVCHLPR
output: -0.897

input: Note amyloid nucleation score for the substance shown: KKLNSCF
output: 0.533

input: # return recorded amyloid nucleation score for input HHSRIFICDLRWSSTVRHCK
output: 1.39

input: Name the recorded amyloid nucleation score of the substance listed here: MRNYNLAWRHSSYCTIRSNA
output: 0.51

input: Specify amyloid nucleation score for FGPNVSFR and stop.
output: -0.638

input: Specify reported amyloid nucleation score for the substance shown: NRCCVPTKATN
output: 0.27

input: Using known records, supply amyloid nucleation score for LSWVVVVSNKYGQTMTCVVI
output: -0.326

input: Report amyloid nucleation score, nothing else, for this substance: IKVLSYISWCGGFEKRCVGG
output: 1.05

input: For the substance AQNLDPQWWCLVRCDCYPL , give its measured amyloid nucleation score value.
output: -0.49

input: Return amyloid nucleation score (reported value) for this substance: YRPLVTPALSLTLNRFKVDV
output: 0.187
